Assay: Cytotoxicity against mouse J774A1 cells assessed as live cells at 50 uM by calcein AM assay
Format: cell-based, J774.A1
Conditions: read-out: Activity
result_type: viability at 50 µM

So what does the record say about viability at 50 µM for N=C(N)NCCC[C@@H](NC(=O)[C@@H](CS)NC(=O)[C@@H](Cc1ccc(O)cc1)NC(=O)[C@@H](Cc1c[nH]c2ccccc12)NC(=O)[C@@H](CCCNC(=N)N)NC(=O)[C@H](N)Cc1c[nH]c2ccccc12)C(=O)O ?
93%

====

Assay: Cytotoxicity against mouse peritoneal macrophages assessed as live cells at 100 uM by calcein AM assay
Format: cell-based, Peritoneal macrophage cell
Settings: read-out: Activity
result_type: viability at 100 µM (%)
Report as a plain number; the unit % is understood.

So what does the record say about viability at 100 µM for N=C(N)NCCC[C@@H](NC(=O)[C@@H](CS)NC(=O)[C@@H](Cc1ccc(O)cc1)NC(=O)[C@@H](Cc1c[nH]c2ccccc12)NC(=O)[C@@H](CCCNC(=N)N)NC(=O)[C@H](N)Cc1c[nH]c2ccccc12)C(=O)O ?
94.4
